These data points were gathered from patent EP4721767A1.

test system: SW626; experiment: Proliferation-inhibiting effect on tumor cells (SRB / MTT); assay type: cell-based; conditions: Homo sapiens; SW626, 144 hours; read-out: IC50 (nM, mean ± SD)
readout_type: IC50

> print(dat)
                                   compound  observed.result
1  CC[C@@]1(O)C(=O)OCc2c1cc1n(c2=O)Cc2c-1nc1ccc(N)c3c1c2C(F)(F)CC3 [Compound 3]          3.08 nM
